experiment: Liver microsomes stability, human; conditions: human, pooled liver microsomes
recorded_metric: microsomal CLint at 2 μM (µL/min/mg)

# compound, measured_result
rows = [
    ("COc1ccc2c(c1)C(CCN(C)C)CN2 (stereo not shown)", 35.5),
    ("CN(C)CCC1CNc2ccccc21 (stereo not shown)", 12.9),
    ("[2H]C([2H])([2H])Oc1ccc2c(c1)C(CCN(C)C)CN2 (stereo not shown)", 26),
    ("CN(C)CCC1CNc2ccc(F)cc21 (stereo not shown)", 1.5),
]

----------
assay: Liver microsomes stability, mouse; settings: male, mouse, microsomes
Each entry gets criterion not met if its microsomal CLint at 2 μM stays under 80 µL/min/mg, and criterion met if its microsomal CLint at 2 μM is 80 µL/min/mg or above.

# compound, label_value
records = [
    ("O=C(O)Cc1ccccc1Nc1c(Cl)cccc1Cl", "criterion not met"),
    ("[2H]C([2H])([2H])Oc1ccc2c(c1)C(CCN(C)C)CN2 (centres unmarked)", "criterion not met"),
    ("COc1ccc2c(c1)C(CCN(C)C)CN2 (centres unmarked)", "criterion met"),
    ("CN(C)CCC1CNc2ccccc21 (centres unmarked)", "criterion not met"),
    ("CN(C)CCC1CNc2ccc(F)cc21 (centres unmarked)", "criterion not met"),
]

----------
Quick reference: EC50 of the listed items.
biological target: human 5-HT2A (h5-HT2A) receptor (Homo sapiens, UniProt P28223); construct: expressed in transfected cells; cultured under G418 and hygromycin B selection; experiment: FLIPR assay, human 5-HT2A receptor under agonist mode; format: cell-based; conditions: 5-HT2A (FLIPR), read-out: EC50
Sequence (P28223 whole entry): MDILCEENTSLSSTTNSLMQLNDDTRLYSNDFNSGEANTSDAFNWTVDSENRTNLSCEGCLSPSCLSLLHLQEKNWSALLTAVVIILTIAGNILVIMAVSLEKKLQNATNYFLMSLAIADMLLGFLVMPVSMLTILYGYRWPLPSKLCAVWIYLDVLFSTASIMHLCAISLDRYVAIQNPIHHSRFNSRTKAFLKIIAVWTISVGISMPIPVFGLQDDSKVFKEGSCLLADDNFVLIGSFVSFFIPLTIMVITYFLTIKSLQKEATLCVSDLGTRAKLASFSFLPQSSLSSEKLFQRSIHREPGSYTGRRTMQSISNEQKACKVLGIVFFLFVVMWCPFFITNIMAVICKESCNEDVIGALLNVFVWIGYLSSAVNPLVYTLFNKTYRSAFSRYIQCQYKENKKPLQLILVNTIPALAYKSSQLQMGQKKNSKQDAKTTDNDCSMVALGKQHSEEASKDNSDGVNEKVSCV

# molecule, EC50
measured = [
    ("CN(C)CCC1CNc2ccc(F)cc21 (stereo not shown)", "107 nM"),
    ("COc1ccc2c(c1)C(CCN(C)C)CN2C (stereo not shown)", "404 nM"),
    ("CN(C)CCC1CNc2ccccc21 (stereo not shown)", "1230 nM"),
    ("[2H]C([2H])([2H])Oc1ccc2c(c1)C(CCN(C)C)CN2 (stereo not shown)", "19 nM"),
]

----------
Experiment: Liver microsomes stability, mouse
Settings: mouse, Without NADPH, 30 min
Experimental: The objective of this study was to estimate in vitro metabolic stability of representative compounds of the application in pooled human and male mouse liver microsomes. The concentrations of parent compounds in reaction systems were evaluated by LC-MS/MS for estimating the stability in pooled human and male mouse liver microsomes. The in vitro intrinsic clearances of test compounds were determined as well. […] The in vitro half-life (in vitro t1/2) was determined from the slope value: […]

# compound, output_unit, Remaining Percentage
measured = [
    ("O=C(O)Cc1ccccc1Nc1c(Cl)cccc1Cl", "%", 105.81),
    ("COc1ccc2c(c1)C(CCN(C)C)CN2 (centres unmarked)", "%", 117.83),
    ("CN(C)CCC1CNc2ccccc21 (centres unmarked)", "%", 99.08),
    ("[2H]C([2H])([2H])Oc1ccc2c(c1)C(CCN(C)C)CN2 (centres unmarked)", "%", 94.39),
    ("CN(C)CCC1CNc2ccc(F)cc21 (centres unmarked)", "%", 108.70),
]

----------
experiment: Liver microsomes stability, rat; conditions: rat, liver microsomes
recorded_metric: half-life at 2 μM (min)

# compound, measured_result
records = [
    ("COc1ccc2c(c1)C(CCN(C)C)CN2 (stereo not shown)", 14.8),
    ("[2H]C([2H])([2H])Oc1ccc2c(c1)C(CCN(C)C)CN2 (stereo not shown)", 15.3),
    ("CN(C)CCC1CNc2ccc(F)cc21 (stereo not shown)", 12.6),
    ("CN(C)CCC1CNc2ccccc21 (stereo not shown)", 18.3),
]

----------
test: Liver microsomes stability, rat; settings: rat, Without NADPH, 60 min

# molecule, Remaining Percentage (%)
measured = [
    ("O=C(O)Cc1ccccc1Nc1c(Cl)cccc1Cl", 96.90),
    ("CN(C)CCC1CNc2ccccc21 (centres unmarked)", 83.54),
    ("COc1ccc2c(c1)C(CCN(C)C)CN2 (centres unmarked)", 87.15),
    ("[2H]C([2H])([2H])Oc1ccc2c(c1)C(CCN(C)C)CN2 (centres unmarked)", 85.67),
    ("CN(C)CCC1CNc2ccc(F)cc21 (centres unmarked)", 104.17),
]

----------
experiment: Liver microsomes stability, mouse; conditions: male, mouse, microsomes
Criterion: half-life at 2 μM strictly less than 40 min. Met: true. Not met: false.

# molecule, label_value
measured = [
    ("COc1ccc2c(c1)C(CCN(C)C)CN2 (centres unmarked) [II-1]", "true"),
    ("CN(C)CCC1CNc2ccccc21 (centres unmarked) [II-2]", "true"),
    ("CN(C)CCC1CNc2ccc(F)cc21 (centres unmarked) [Compound I-2]", "true"),
    ("[2H]C([2H])([2H])Oc1ccc2c(c1)C(CCN(C)C)CN2 (centres unmarked) [Compound I-11]", "true"),
    ("O=C(O)Cc1ccccc1Nc1c(Cl)cccc1Cl [Diclofenac]", "false"),
]

----------
experiment: Liver microsomes stability, human; conditions: human, With NADPH, 60 min
Quick reference: Remaining Percentage of the listed items.

# compound, output_unit, Remaining Percentage
measured = [
    ("O=C(O)Cc1ccccc1Nc1c(Cl)cccc1Cl", "%", 1.80),
    ("CN(C)CCC1CNc2ccccc21 (centres unmarked)", "%", 67.85),
    ("[2H]C([2H])([2H])Oc1ccc2c(c1)C(CCN(C)C)CN2 (centres unmarked)", "%", 45.89),
    ("CN(C)CCC1CNc2ccc(F)cc21 (centres unmarked)", "%", 95.59),
    ("COc1ccc2c(c1)C(CCN(C)C)CN2 (centres unmarked)", "%", 34.47),
]

----------
experiment: Liver microsomes stability, mouse; settings: mouse liver microsomes

# molecule, Predicted hepatic CL
rows = [
    ("O=C(O)Cc1ccccc1Nc1c(Cl)cccc1Cl", "54.52 mL/min/kg"),
    ("COc1ccc2c(c1)C(CCN(C)C)CN2 (centres unmarked)", "72.33 mL/min/kg"),
    ("CN(C)CCC1CNc2ccc(F)cc21 (centres unmarked)", "57.99 mL/min/kg"),
    ("[2H]C([2H])([2H])Oc1ccc2c(c1)C(CCN(C)C)CN2 (centres unmarked)", "70.89 mL/min/kg"),
    ("CN(C)CCC1CNc2ccccc21 (centres unmarked)", "58.25 mL/min/kg"),
]

----------
experiment: Liver microsomes stability, mouse; details: mouse, With NADPH, 60 min
Quick reference: Remaining Percentage of the listed items.
recorded_metric: Remaining Percentage

# compound, recorded_metric, measured_result
records = [
    ("O=C(O)Cc1ccccc1Nc1c(Cl)cccc1Cl", "Remaining Percentage", "38.74%"),
    ("[2H]C([2H])([2H])Oc1ccc2c(c1)C(CCN(C)C)CN2 (centres unmarked)", "Remaining Percentage", "10.14%"),
    ("CN(C)CCC1CNc2ccc(F)cc21 (centres unmarked)", "Remaining Percentage", "32.69%"),
    ("CN(C)CCC1CNc2ccccc21 (centres unmarked)", "Remaining Percentage", "32.23%"),
    ("COc1ccc2c(c1)C(CCN(C)C)CN2 (centres unmarked)", "Remaining Percentage", "8.00%"),
]

----------
experiment: Liver microsomes stability, rat; details: rat, Without NADPH, 30 min
recorded_metric: Remaining Percentage (%)

# compound, recorded_metric, measured_result
data = [
    ("COc1ccc2c(c1)C(CCN(C)C)CN2 (centres unmarked)", "Remaining Percentage", 86.92),
    ("CN(C)CCC1CNc2ccc(F)cc21 (centres unmarked)", "Remaining Percentage", 106.67),
    ("[2H]C([2H])([2H])Oc1ccc2c(c1)C(CCN(C)C)CN2 (centres unmarked)", "Remaining Percentage", 102.53),
    ("CN(C)CCC1CNc2ccccc21 (centres unmarked)", "Remaining Percentage", 92.41),
    ("O=C(O)Cc1ccccc1Nc1c(Cl)cccc1Cl", "Remaining Percentage", 100.00),
]

----------
experiment: Liver microsomes stability, rat; conditions: rat, liver microsomes
Quick reference: CLint scaled at 2 μM of the listed items.
recorded_metric: CLint scaled at 2 μM

# compound, recorded_metric, measured_result
rows = [
    ("[2H]C([2H])([2H])Oc1ccc2c(c1)C(CCN(C)C)CN2 (stereo not shown) [Compound I-11]", "CLint scaled at 2 μM", "162 mL/min/kg"),
    ("CN(C)CCC1CNc2ccccc21 (stereo not shown) [II-2]", "CLint scaled at 2 μM", "136 mL/min/kg"),
    ("CN(C)CCC1CNc2ccc(F)cc21 (stereo not shown) [Compound I-2]", "CLint scaled at 2 μM", "198 mL/min/kg"),
    ("COc1ccc2c(c1)C(CCN(C)C)CN2 (stereo not shown) [II-1]", "CLint scaled at 2 μM", "168 mL/min/kg"),
]
